// reported GTPγS δ-RelEfficacy @200 nM per item
- Assay Target: delta opioid receptor (Mus musculus, UniProt P32300)
- Construct: NG108-15 cell membranes were purchased from Applied Cell Sciences (Rockville, Md.); host or cells: NG108-15 cell membranes
- Sequence (P32300 whole entry): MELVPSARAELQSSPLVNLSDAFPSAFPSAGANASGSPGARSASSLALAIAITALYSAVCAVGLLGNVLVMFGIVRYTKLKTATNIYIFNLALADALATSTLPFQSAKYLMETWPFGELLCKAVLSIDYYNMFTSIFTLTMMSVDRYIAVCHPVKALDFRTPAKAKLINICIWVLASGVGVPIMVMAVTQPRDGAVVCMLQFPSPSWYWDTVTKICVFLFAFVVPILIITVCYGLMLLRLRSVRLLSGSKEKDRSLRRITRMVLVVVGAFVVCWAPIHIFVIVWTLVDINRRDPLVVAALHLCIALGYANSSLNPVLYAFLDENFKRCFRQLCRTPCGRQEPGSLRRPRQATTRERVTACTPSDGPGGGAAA
- Measurement Protocol: [35S]GTPγS binding assay in NG108-15 cell membranes (delta opioid functional assay), 200 nM screen
- Type: biochemical
- Reported Conditions: 200 nM test compound; relative to calculated max of SNC80 dose response curve; NG108-15 cell membranes; averages if tested more than once
Lab note: record just the number, no unit beside it.

Sample records with GTPγS δ-RelEfficacy @200 nM:
• COc1ccc(Oc2nc(-c3cncc(F)c3)ncc2NC[C@H]2COCCN2)cc1 = 0.221
• Cc1ccc(Oc2nc(-c3cncc(F)c3)ncc2NC[C@@H]2CCCN2)c(F)c1F = 0.410
• COc1ccc(Oc2nc(-c3ccccc3)ncc2N2CCNCC2)cc1 = 0.519
• COc1ccc(Oc2nc(-c3cncc(C#N)c3)ncc2N2CCC[C@@H]2CN)cc1 [Cpd 334] = 0.423

Lookup: Please give the measured GTPγS δ-RelEfficacy @200 nM for this molecule: O=CNc1ccc(Oc2nc(-c3cccnc3)ncc2NC[C@@H]2CCCN2)cc1
Found: 0.406

Lookup: Okay, and COc1ccc(Oc2nc(-c3cccnc3)ncc2NC2CCCC(N)C2)cc1 (single isomer, unassigned) [Cpd 307] ?
Found: 0.880

Lookup: Okay, and COCc1ccc(Oc2nc(-c3cccnc3)ncc2NC[C@@H]2CCCN2)cc1 ?
Found: 0.170

Lookup: Okay, and Cc1ccc(Oc2nc(-c3cncc(C#N)c3)ncc2NC[C@@H]2CCCN2)cc1F ?
Found: 0.723

Lookup: Okay, and Cc1cccc(Oc2nc(-c3cncc(C#N)c3)ncc2NC[C@@H]2CCCN2)c1 ?
Found: 0.289

Lookup: Okay, and COc1ccc(Oc2nc(-c3cccnc3)ncc2N[C@@H]2CCNC2)cc1 ?
Found: 0.460

Lookup: Okay, and FCc1ccc(Oc2nc(-c3cccnc3)ncc2NC[C@@H]2CCCN2)cc1 ?
Found: 0.480
